# TARGET ENTITY: human recombinant LPA2 expressed in CHO cells (Homo sapiens)
# Construct: expressed in transfected cells; host or cells: CHO cells (CHO-hLPA2 cell line)
# Sequence (Q9HBW0 whole entry): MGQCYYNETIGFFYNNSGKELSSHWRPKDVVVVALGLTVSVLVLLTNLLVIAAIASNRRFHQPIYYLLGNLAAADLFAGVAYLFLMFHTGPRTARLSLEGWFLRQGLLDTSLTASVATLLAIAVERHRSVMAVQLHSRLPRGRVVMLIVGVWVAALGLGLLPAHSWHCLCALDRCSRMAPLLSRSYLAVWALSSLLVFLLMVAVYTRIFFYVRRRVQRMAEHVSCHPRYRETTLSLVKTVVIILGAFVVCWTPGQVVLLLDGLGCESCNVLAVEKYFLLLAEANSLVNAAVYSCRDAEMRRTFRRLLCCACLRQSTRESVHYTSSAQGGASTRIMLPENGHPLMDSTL
# METHOD NOTES: FLIPR calcium mobilization assay, LPA2 antagonism in CHO-hLPA2 cells
# Format: cell-based
# TEST CONDITIONS: CHO-hLPA2 cells, inhibition of LPA EC80 Ca2+ response, 30 min pre-incubation; read-out: LPA2 IC50
pIC50: −log10 of the molar value.
RECORDED METRIC: pIC50

Please review the following examples before continuing.
• C[C@@H](CN1CCN(S(=O)(=O)c2ccc(F)c(F)c2)CC1)Nc1ncnc2c(-c3cccnc3)cccc12 [Example 52] = 7.00 to 8.00
• Cc1nc(C)c(-c2cccc3c(N[C@@H](C)CN4CCN(S(=O)(=O)c5ccc6[nH]c(=O)sc6c5)CC4)ncnc23)s1 [Example 98] = > 8.00
• COC(=O)Nc1nc(C)c(S(=O)(=O)N2CCN(C[C@H](C)Nc3ncnc4c(-c5cccc(C)n5)cccc34)CC2)s1 [Example 71] = > 8.00

Lab note: next molecule to report on.
Entry under test: COC(=O)Nc1nc(C)c(S(=O)(=O)N2CCN(C[C@H](C)Nc3ncnc4c(-c5cncc(C=O)c5)cccc34)CC2)s1 [Example 87] . Its pIC50 was > 8.00
